assay-overview: Therapeutic index, ratio of CC50 for cytotoxicity against human Hep2 cells to EC50 for antiviral activity against Respiratory syncytial virus Long infected in HEp-2 cells
Format: toxicity, cell-based
protocol-conditions: read-out: Ratio CC50/EC50
outcome-measure: selectivity ratio

Example cases with answers are listed next.
CS(=O)(=O)CCn1c(CN2C(=O)C3(CC3)c3ccncc32)cc2ccc(Cl)cc21 ... 12
CCS(=O)(=O)CCn1c(CN2C(=O)C3(CC3)c3ccncc32)cc2cc(Cl)ccc21 ... > 12500
O=C1N(Cc2cc3cc(Cl)ccc3n2[C@H]2CCS(=O)(=O)C2)c2cnccc2C12CC2 ... 4720
CS(=O)(=O)CCCn1c(CN2C(=O)C3(CC3)c3ccncc32)cc2cc(Cl)ccc21 ... 12900
CS(=O)(=O)CCn1c(CN2C(=O)C3(CC3)c3cnccc32)cc2cc(Cl)ccc21 ... 484
CS(=O)(=O)CCn1c(CN2C(=O)C3(CC3)c3ccncc32)cc2c(F)cccc21 ... > 526
O=C1N(Cc2cc3cc(Cl)ccc3n2[C@@H]2CCS(=O)(=O)C2)c2cnccc2C12CC2 ... 18600
CS(=O)(=O)CCn1c(CN2C(=O)C3(CC3)c3ccncc32)cc2nc(Cl)ccc21 ... 1180

Batch request: selectivity ratio per item, same order as input.
1. CS(=O)(=O)CCn1c(CN2C(=O)C3(CC3)c3ccncc32)cc2cc(Cl)cnc21
2. CS(=O)(=O)CCn1c(CN2C(=O)C3(CC3)c3ccncc32)cc2c(C(F)(F)F)cccc21
3. CS(=N)(=O)CCn1c(CN2C(=O)C3(CC3)c3ccncc32)cc2cc(Cl)ccc21 (centres undefined)
4. Cc1cccc2c1cc(CN1C(=O)C3(CC3)c3ccncc31)n2CCS(C)(=O)=O
5. CCS(=O)(=O)CCCn1c(CN2C(=O)C3(CC3)c3ccncc32)cc2cc(Cl)ccc21

Result:
1600
> 179
11200
6840
17100

Batch request: selectivity ratio per item, same order as input.
1. CS(=O)(=O)CCn1c(CN2C(=O)C3(CC3)c3cccnc32)cc2cc(Cl)ccc21
2. CS(=N)(=O)CCCn1c(CN2C(=O)C3(CC3)c3ccncc32)cc2cc(Cl)ccc21 (centres undefined)
3. C[S+]([O-])CCCn1c(CN2C(=O)C3(CC3)c3ccncc32)cc2cc(Cl)ccc21 (centres undefined)
4. CS(=O)(=O)CCn1c(CN2C(=O)C3(CC3)c3ccncc32)cc2c(Br)cccc21
5. CS(=O)(=O)CCn1c(CN2C(=O)C3(CC3)c3ccncc32)cc2cc(Cl)ccc21

Result:
["> 588", 11400, 10200, 3560, 3740]

Ask: GET /values?readout=selectivity ratio&item= `COc1cccc2c1cc(CN1C(=O)C3(CC3)c3ccncc31)n2CCS(C)(=O)=O`
Result: > 1350
